Assay: Neuroprotective effect against veratridine-induced toxicity in Sprague-Dawley rat pure cortical neurons assessed as XTT release at 10 uM co-treated with veratridine
Type: functional, Cortical neurone
# Activity annotations
Quantity: Activity (%)

[[record]]
smi = "O=[N+]([O-])c1cccc(-c2cc(-c3ccccc3)n[nH]2)c1"
quantity = "Activity"
result = 51.2

[[record]]
smi = "Cn1nc(-c2ccccc2)cc1-c1ccc2[nH]ccc2c1"
quantity = "Activity"
result = 56.8

[[record]]
smi = "Clc1ccc(-c2cc(-c3ccccc3)n[nH]2)cc1"
quantity = "Activity"
result = 56.5

[[record]]
smi = "COc1ccc(-c2cc(-c3ccccc3)n[nH]2)cc1"
quantity = "Activity"
result = 64.9


###

Assay: Displacement of [3H]batrachotoxinin from sodium channel site 2 at 10 uM relative to veratridine
Quantity: inhibition (%)

[[record]]
smi = "O=[N+]([O-])c1ccc(-c2cc(-c3ccccc3)n[nH]2)cc1"
result = 14

[[record]]
smi = "COc1cccc(-c2cc(-c3ccccc3)nn2C)c1"
result = 12

[[record]]
smi = "COc1ccc(C(=O)O[C@H]2CC[C@@]3(C)[C@@H]4CC[C@H]5[C@]6(O)C[C@H](O)[C@@]7(O)[C@@H](CN8C[C@@H](C)CC[C@H]8[C@@]7(C)O)[C@]6(O)C[C@@]53O[C@]24O)cc1OC"
result = 100

[[record]]
smi = "COc1ccc(-c2cc(-c3ccccc3)n(C)n2)cc1"
result = 8


###

Test: Displacement of [3H]batrachotoxinin from sodium channel site 2 at 10 uM relative to veratridine
# inhibition annotations
Quantity: inhibition (%)

[[record]]
compound = "COc1ccc(-c2cc(-c3ccccc3)n[nH]2)cc1"
result = 30

[[record]]
compound = "Cn1nc(-c2ccccc2)cc1-c1c[nH]c2ccccc12"
result = 14

[[record]]
compound = "Cn1nc(-c2ccc(Cl)cc2)cc1-c1ccccc1"
result = 13

[[record]]
compound = "Cn1nc(-c2ccccc2)cc1-c1ccc2[nH]ccc2c1"
result = 41

[[record]]
compound = "COc1cccc(C2CC(c3ccccc3)=NN2C(C)=O)c1 (centres undefined)"
result = 16

[[record]]
compound = "CC(=O)N1N=C(c2ccc([N+](=O)[O-])cc2)CC1c1ccccc1 (centres undefined)"
result = 17

[[record]]
compound = "Cn1nc(-c2ccccc2)cc1-c1cccc([N+](=O)[O-])c1"
result = 4

[[record]]
compound = "Cn1nc(-c2ccc([N+](=O)[O-])cc2)cc1-c1ccccc1"
result = 8

[[record]]
compound = "CC(=O)N1N=C(c2ccccc2)CC1c1cccc(Cl)c1 (centres undefined)"
result = 27

[[record]]
compound = "Clc1ccc(-c2cc(-c3ccccc3)n[nH]2)cc1"
result = 16

[[record]]
compound = "COc1cccc(-c2cc(-c3ccccc3)n[nH]2)c1"
result = 27

[[record]]
compound = "O=[N+]([O-])c1cccc(-c2cc(-c3ccccc3)n[nH]2)c1"
result = 15

[[record]]
compound = "Cn1nc(-c2ccccc2)cc1-c1cccc(Cl)c1"
result = 15

[[record]]
compound = "Clc1cccc(-c2cc(-c3ccccc3)n[nH]2)c1"
result = 21


###

# Activity annotations
Test: Neuroprotective effect against NMDA-induced toxicity in Sprague-Dawley rat mixed cortical neurons assessed as LDH release at 10 uM co-treated with NMDA
Type: functional, Cortical neurone
Quantity: Activity (%)

[[record]]
compound = "Clc1cccc(-c2cc(-c3ccccc3)n[nH]2)c1"
unit_of_measurement = "%"
result = 96.4

[[record]]
compound = "COc1cccc(-c2cc(-c3ccccc3)nn2C)c1"
unit_of_measurement = "%"
result = 78.3

[[record]]
compound = "COc1ccc(-c2cc(-c3ccccc3)n[nH]2)cc1"
unit_of_measurement = "%"
result = 67.2

[[record]]
compound = "Clc1ccc(-c2cc(-c3ccccc3)n[nH]2)cc1"
unit_of_measurement = "%"
result = 66.1

[[record]]
compound = "CC(=O)N1N=C(c2ccc([N+](=O)[O-])cc2)CC1c1ccccc1 (configuration not stated)"
unit_of_measurement = "%"
result = 85.5

[[record]]
compound = "Cn1nc(-c2ccc(C(=O)O)cc2)cc1-c1ccc(C(C)(C)C)cc1"
unit_of_measurement = "%"
result = 61.1

[[record]]
compound = "Cn1nc(-c2ccc([N+](=O)[O-])cc2)cc1-c1ccccc1"
unit_of_measurement = "%"
result = 86.3


###

Test: Neuroprotective effect against NMDA-induced toxicity in Sprague-Dawley rat mixed cortical neurons assessed as LDH release at 10 uM co-treated with NMDA
Type: functional, Cortical neurone
Quantity: Activity (%)

[[record]]
molecule = "O=[N+]([O-])c1ccc(-c2cc(-c3ccccc3)n[nH]2)cc1"
result = 89

[[record]]
molecule = "COc1cccc(C2CC(c3ccccc3)=NN2C(C)=O)c1 (configuration not stated)"
result = 81

[[record]]
molecule = "Cn1nc(-c2ccccc2)cc1-c1cccc([N+](=O)[O-])c1"
result = 85.5

[[record]]
molecule = "CC(=O)N1N=C(c2ccccc2)CC1c1cccc(Cl)c1 (configuration not stated)"
result = 86.4

[[record]]
molecule = "Cn1nc(-c2ccccc2)cc1-c1c[nH]c2ccccc12"
result = 76.7

[[record]]
molecule = "Cn1nc(-c2ccccc2)cc1-c1cccc(Cl)c1"
result = 65.6

[[record]]
molecule = "COc1ccc(-c2cc(-c3ccccc3)n(C)n2)cc1"
result = 70.4

[[record]]
molecule = "O=[N+]([O-])c1cccc(-c2cc(-c3ccccc3)n[nH]2)c1"
result = 75.6

[[record]]
molecule = "COc1cccc(-c2cc(-c3ccccc3)n[nH]2)c1"
result = 76

[[record]]
molecule = "COc1ccccc1-c1cnn(-c2ccccc2)c1"
result = 80.3

[[record]]
molecule = "Cn1nc(-c2ccccc2)cc1-c1ccc2[nH]ccc2c1"
result = 67.1

[[record]]
molecule = "Cn1nc(-c2ccc(Cl)cc2)cc1-c1ccccc1"
result = 87.3


###

Test: Neuroprotective effect against veratridine-induced toxicity in Sprague-Dawley mixed rat cortical neurons assessed as LDH release at 10 uM co-treated with veratridine
Quantity: Activity

[[record]]
smi = "O=[N+]([O-])c1cccc(-c2cc(-c3ccccc3)n[nH]2)c1"
result = "26.6%"

[[record]]
smi = "Cn1nc(-c2ccccc2)cc1-c1ccc2[nH]ccc2c1"
result = "63.2%"

[[record]]
smi = "COc1ccc(-c2cc(-c3ccccc3)n[nH]2)cc1"
result = "49.2%"

[[record]]
smi = "Clc1ccc(-c2cc(-c3ccccc3)n[nH]2)cc1"
result = "24.2%"


###

Experiment: Neuroprotective effect against veratridine-induced toxicity in Sprague-Dawley rat pure cortical neurons assessed as XTT release at 1 uM co-treated with veratridine
Type: functional, Cortical neurone
# Activity annotations
Quantity: Activity

[[record]]
smi = "COc1ccc(-c2cc(-c3ccccc3)n[nH]2)cc1"
result = "70.4%"

[[record]]
smi = "O=[N+]([O-])c1cccc(-c2cc(-c3ccccc3)n[nH]2)c1"
result = "80.9%"

[[record]]
smi = "Cn1nc(-c2ccccc2)cc1-c1ccc2[nH]ccc2c1"
result = "82.7%"

[[record]]
smi = "Clc1ccc(-c2cc(-c3ccccc3)n[nH]2)cc1"
result = "75%"


###

Assay: Neuroprotective effect against veratridine-induced toxicity in Sprague-Dawley mixed rat cortical neurons assessed as LDH release at 1 uM co-treated with veratridine
# Activity annotations
Quantity: Activity (%)

[[record]]
smi = "COc1ccc(-c2cc(-c3ccccc3)n[nH]2)cc1"
quantity = "Activity"
result = 80.9

[[record]]
smi = "O=[N+]([O-])c1cccc(-c2cc(-c3ccccc3)n[nH]2)c1"
quantity = "Activity"
result = 77.6

[[record]]
smi = "Cn1nc(-c2ccccc2)cc1-c1ccc2[nH]ccc2c1"
quantity = "Activity"
result = 87.9

[[record]]
smi = "Clc1ccc(-c2cc(-c3ccccc3)n[nH]2)cc1"
quantity = "Activity"
result = 74.1

